# target.under.test: MKNK2 (human) (UniProt Q9HBH9)
# Sequence (Q9HBH9 whole entry, looked up): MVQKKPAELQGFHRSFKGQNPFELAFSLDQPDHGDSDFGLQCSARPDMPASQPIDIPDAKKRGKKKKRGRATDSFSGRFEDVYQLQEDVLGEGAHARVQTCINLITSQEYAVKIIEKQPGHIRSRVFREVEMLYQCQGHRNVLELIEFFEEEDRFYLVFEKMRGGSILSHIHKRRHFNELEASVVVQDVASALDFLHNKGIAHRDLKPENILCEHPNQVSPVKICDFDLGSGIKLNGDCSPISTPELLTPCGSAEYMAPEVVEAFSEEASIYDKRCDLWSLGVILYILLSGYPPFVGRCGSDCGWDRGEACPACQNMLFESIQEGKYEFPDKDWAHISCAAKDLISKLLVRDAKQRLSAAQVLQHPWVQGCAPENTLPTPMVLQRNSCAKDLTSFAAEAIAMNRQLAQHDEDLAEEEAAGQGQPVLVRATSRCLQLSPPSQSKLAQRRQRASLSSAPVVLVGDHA
# assay.info: radiometric filter-binding kinase assay, Kinase HotSpot
# measurement.conditions: compound 0.5 µM; ATP 10 µM
// classify(record): look up residual activity in ranges label 0: < 70%; label 1: ≥ 70% and < 90%; label 2: ≥ 90%

| compound | class.label |
| --- | --- |
| O=C(O)/C=C/c1cc(Br)c(Br)c(Br)c1Br | label 0 |
| CN([C@@H](Cc1ccc(OS(=O)(=O)c2cccc3cnccc23)cc1)C(=O)N1CCN(c2ccccc2)CC1)S(=O)(=O)c1cccc2cnccc12 | label 2 |
| O=C1Nc2ccccc2/C1=C1/Nc2ccccc2/C1=N\OCCC(O)CO (stereo not given) | label 1 |
| COc1ccc(OC)c2c(=S)c3ccccc3[nH]c12 | label 1 |
| O=C1Cc2c([nH]c3ccc(Br)cc23)-c2ccccc2N1 | label 2 |
| CCn1cnc2c(Nc3cccc(Cl)c3)nc(N[C@@H]3CCCC[C@@H]3N)nc21 | label 2 |
| O=C(CCCc1ccc(-c2ccccc2F)cc1)Nc1ccc(O)cc1 | label 2 |
| CC(=O)O/N=C1\C(=C2\C(=O)Nc3cc(Br)ccc32)Nc2ccccc21 | label 0 |
| Cn1cnc2cc3c(Nc4cccc(Br)c4)ncnc3cc21 | label 0 |
